test: soluble on expression in E. coli; label from the status in PepcDB or PDB records
property_measured: soluble on expression in E. coli

INSERT INTO measurements (sequence_content, measurement) VALUES
  ('MDPGKKKQHICHIQGCGKVYGKTSHLRAHLRWHTGER', 'soluble'),
  ('NDEDCRNIYRYSPKDRKFEKLNLETDVTSAFAMSENNPSLAAYIGQGCYNAGVAYVYDLKKKTSRLIADPMKPTLERIELGEMKPWNFTASDGTEIKGMMCLPPSFDPNKKYPLIVYYYGGTTPTERGISNPYCAQLFASRDYVVYVIQPSGTIGFGQEFSARHVNAWGKRTADDIIEGTKQFCKEHPFVNDKKIGCLGASYGGFMTQYLQTQTDIFAAAVSHAGISNVTSYWGEGYWGYGYNAIAAADSYPWNNPELFTKQGSLFNADKINTPLLLLHGTVDTNVPIGESIQLFNALKILGKTVEFITVDGENHFIADYPKRMQWHNSIMAWFARWLQ', 'not soluble'),
  ('MKTIIRYFSFVMGLMLTLPSFAKEKISIMLDWYVNPDHAAIIVAQQKGFFEKNNLEVEIIEPADPALPPKLAAAEKVDLAVSYQPQLYQQVAEGLPLVRVGSLISNPLNSVVVLKKSNLKSLADLKGKKVGYSVSGFEDGLLDTMLHSIGLSNKDVELVNVNWSLSPSLLTGQVDAVIGAFRNFELNQLALEKQEGIAFFPEQYGVPAYDELILVANKNSVTDKKTSAFLTALEQATSYLQAHPNEAWQAFVSYKPNELNTPLNQLAWKDTLPFLANKPRQLDAKRYQQMAEFMQQKGLIPKALALKEYAVEIELEHHHHHH', 'soluble'),
  ('MGSDKIHHHHHHMKKLLLPLIIMLLVLAACGNQGEKNNKAETKSYKMDDGKTVDIPKDPKRIAVVAPTYAGGLKKLGANIVAVNQQVDQSKVLKDKFKGVTKIGDGDVEKVAKEKPDLIIVYSTDKDIKKYQKVAPTVVVDYNKHKYLEQQEMLGKIVGKEDKVKAWKKDWEETTAKDGKEIKKAIGQDATVSLFDEFDKKLYTYGDNWGRGGEVLYQAFGLKMQPEQQKLTAKAGWAEVKQEEIEKYAGDYIVSTSEGKPTPGYESTNMWKNLKATKEGHIVKVDAGTYWYNDPYTLDFMRKDLKEKLIKAAK', 'not soluble'),
  ('MRTLLDLDPKGKRVLVRVDYNVPVQDGKVQDETRILESLPTLRHLLAGGASLVLLSHLGRPKGPDPKYSLAPVGEALRAHLPEARFAPFPPGSEEARREAEALRPGEVLLLENVRFEPGEEKNDPELSARYARLGEAFVLDAFGSAHRAHASVVGVARLLPAYAGFLMEKEVRALSRLLKDPERPYAVVLGGAKVSDKIGVIESLLPRIDRLLIGGAMAFTFLKALGGEVGRSLVEEDRLDLAKDLLGRAEALGVRVYLPEDVVAAERIEAGVETRVFPARAIPVPYMGLDIGPKTREAFARALEGARTVFWNGPMGVFEVPPFDEGTLAVGQAIAALEGAFTVVGGGDSVAAVNRLGLKERFGHVSTGGGASLEFLEKGTLPGLEVLEG', 'soluble'),
  ('SDEEKKRRAATARRQHLKSAMLQLAVTEIEKEAAAKEVEKQNYLAEHSPPLSLPGSMQELQELSKKLHAKIDSVDEERYDTEVKLQKTNKELEDLSQKLFDLRGKFKRPPLRRVRMSADAMLRALLGSKHKVNMDLR', 'soluble'),
  ('MGSDKIHHHHHHMELQDKYIRFDWAVKRLLRHKANFGVLEGFLTVLIGDEIHIVEILESEGNQQTENDKFNRVDIKALNSKNEIVIIEIQNTRELYYLERILYGVAKAITEHISLGETYYKVKKIYSISILYFDIGHGTDYLYHGQNIFKGVHTGDFLQVSTREKDAIVPRMPSEIYPEYFLIRVNEFNKVAVTPLEEWIEYLKTGIIRPDTTAPGLGEAREKLKYYSMTPQERHAYDEHLSALMIQNDVLDSAKLEGKIEGKIEGKIEGRLEGRAEGREEGREEGIKEGVLRNARRMKEKGFSTEDIMEITGLTFEEVSQL', 'not soluble'),
  ('MGSDKIHHHHHHMCIMASCLSPNWSVFDIDQSQTLQVAVQEAHARSQPLAIRGGGSKTFYGRQTPACDLLDLGGHRGIIDYAPNELFITLRAGTSLQALEAQLAEAGQMLPFEPPHFGPAATIGGTLACGFSGPRRPYAGSARDMVLGMRILNGQGEILRFGGQVMKNVAGYDVSRLMVGALGTLGVLLEVSLKVLPRPDSTVTLVWPMDPVTAVQRMNDWAGQPLPLSATAYDGEHLYIRLSGTGSAVRAAQTRLGGERLPDAEAAAFWVALREQRNDFFQGDAPLWRLAVAPATPPLPLGDQTLIEWGGGQRWLRGALDATALRQLAAEHGGHATLFRGGNRRGEVFHPLAPPLLAMQQRLKAAFDPRGILNSGRLYATL', 'not soluble'),
  ('MGSDKIHHHHHHMRIQQLHYIIKIVETGSMNEAAKQLFITQPSLSNAVRDLEREMGIEIFIRNPKGITLTKDGVEFLSYARQVVEQTALLEERYKSQGHTRELFSVSAQHYAFVVNAFVSLLKETDMTRYELFLRETRTYEIIDDVKNFRSEIGVLFLNSYNHDVLTKMFDDNHLTYTSLFKAHPHIFVSKDNPLAKHQSVSLSDLEDFPYLSYDQGIHNSFYFSEEIMSQISHKKSIVVSDRATLFNLMIGLDGYTIATGILNSNLNGDNIVSIPLEVDDEIDIIYLKHEKANLSKMGEKFIDYLLEEVKFDK', 'not soluble'),
  ('MLGVGKIGGAIVKSLLSCGAVVTGTGRRRETLERISRLGAEATVDNRLAAKVSDVVILSVKPYQLPRLLEEIRDVMEGKIVVSVVAGVRLSTLSRALEGSHVYRAMPNINALIGRSTTAVAEYTGDKRASFVESILSCMGSVYWIPEEWMDVWTALVGSMPAYVAVMIDSLTLGGVSAGLPREVAFKAVIDTLGATAEHLGKRDIHPSVLRDEVTTPAGTTIEGLKVIEGEGVDAALIRTVEAAARRAAAIGEAIDNEVRRSLNLRAAALEHHHHHH', 'not soluble');
